Reported Ki for target or system Muscarinic acetylcholine receptor M3 (Homo sapiens, UniProt P20309), by entry.
PARAMETER MEASURED: Ki (nM)

COMPOUND	QUALIFIER OPERATOR	DATA VALUE
CS(=O)(=O)Nc1cc([C@@H](O)CNCCCCCCCCCN2CCC(OC(=O)Nc3ccccc3-c3ccc(O)c(Cl)c3)CC2)ccc1O	=	0.73
CS(=O)(=O)Nc1cc([C@@H](O)CNCCCCCCCCCN2CCC(OC(=O)Nc3ccccc3-c3ccc(F)cc3O)CC2)ccc1O	=	26
CS(=O)(=O)Nc1cc([C@@H](O)CNCCCCCCCCCN2CCC(OC(=O)Nc3ccccc3-c3ccc(O)cc3)CC2)ccc1O	=	2.2
CS(=O)(=O)Nc1cc([C@@H](O)CNCCCCCCCCCCN2CCC(OC(=O)Nc3ccccc3-c3ccc(O)c(Cl)c3)CC2)ccc1O	=	2
CS(=O)(=O)Nc1cc([C@@H](O)CNCCCCCCCCCN2C[C@H]3C[C@@]3(COC(=O)Nc3ccccc3-c3ccc(O)c(Cl)c3)C2)ccc1O	=	4.3
CS(=O)(=O)Nc1cc([C@@H](O)CNCCCCCCCCCN2CCC(OC(=O)Nc3ccccc3-c3cc(O)cc(F)c3)CC2)ccc1O	=	76
Cc1ccc(-c2ccc(O)c(Cl)c2)c(NC(=O)OC2CCN(CCCCCCCCCNC[C@H](O)c3ccc(O)c(NS(C)(=O)=O)c3)CC2)c1	=	2
CS(=O)(=O)Nc1cc([C@@H](O)CNCCCCCCCCCN2C3CCC2CC(OC(=O)Nc2ccccc2-c2ccc(O)c(Cl)c2)C3)ccc1O (stereo partly specified)	=	8.9
CS(=O)(=O)Nc1cc([C@@H](O)CNCCCCCCCCCCCN2CCC(OC(=O)Nc3ccccc3-c3ccc(O)c(Cl)c3)CC2)ccc1O	=	4.4
CS(=O)(=O)Nc1cc([C@@H](O)CNCCCCCCCCCN2CCC(OC(=O)Nc3ccccc3-c3cc(F)cc(F)c3O)CC2)ccc1O	=	22
CS(=O)(=O)Nc1cc([C@@H](O)CNCCCCCCCCCN2CCC(OC(=O)Nc3ccccc3-c3cc(C#N)ccc3O)CC2)ccc1O	>	73
